biological target: long form of human GPR120 (Homo sapiens, UniProt Q5NUL3); test: Human GPR120 DiscoveRx PathHunter β-Arrestin assay, Procedure β-arrestin A; conditions: PathHunter CHO-K1 GPR120 β-Arrestin cell line, 3000 cells per well
Sequence (Q5NUL3 1-377 isoform Q5NUL3-1): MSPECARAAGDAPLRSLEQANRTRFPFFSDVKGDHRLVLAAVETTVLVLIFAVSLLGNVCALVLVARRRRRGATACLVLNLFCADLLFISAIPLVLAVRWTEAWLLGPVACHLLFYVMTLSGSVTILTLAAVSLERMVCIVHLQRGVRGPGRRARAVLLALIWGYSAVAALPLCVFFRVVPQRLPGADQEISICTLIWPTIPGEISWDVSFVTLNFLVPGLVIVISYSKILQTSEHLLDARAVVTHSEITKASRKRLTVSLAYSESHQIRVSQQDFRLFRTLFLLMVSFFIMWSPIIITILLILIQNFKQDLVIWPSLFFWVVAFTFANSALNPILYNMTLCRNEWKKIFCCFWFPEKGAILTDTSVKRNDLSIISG
Sequence (P32121 whole entry partner): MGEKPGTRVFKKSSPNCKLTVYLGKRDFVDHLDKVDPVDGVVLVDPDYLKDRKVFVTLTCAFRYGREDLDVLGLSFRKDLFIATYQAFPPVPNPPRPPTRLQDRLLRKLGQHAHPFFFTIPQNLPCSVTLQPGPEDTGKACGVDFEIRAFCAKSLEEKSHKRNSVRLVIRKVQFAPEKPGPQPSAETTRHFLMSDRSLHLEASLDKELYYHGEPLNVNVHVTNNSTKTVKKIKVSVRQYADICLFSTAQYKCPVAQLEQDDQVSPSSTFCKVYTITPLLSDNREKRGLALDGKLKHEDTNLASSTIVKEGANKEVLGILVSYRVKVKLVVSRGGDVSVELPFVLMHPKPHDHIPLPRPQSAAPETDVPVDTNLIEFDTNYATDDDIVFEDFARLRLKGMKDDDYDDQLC
value type: EC50

Exercise: GET /values?readout=EC50&item= Cc1ccc(-n2ccc(C(F)(F)F)c2COc2c(F)cc(CCCO)cc2F)cn1 [Compound 48, trifluoroacetic acid]
Key: 98 nM

Exercise: Which measured EC50 value corresponds to COc1ccc(-n2ccc(C(F)(F)F)c2COc2ccc(CCC(=O)O)c(F)c2F)cc1 [Compound 26] ?
Key: 249 nM

Exercise: Value lookup for EC50; key = Cc1c(CCC(=O)O)ccc(OCc2c(C(F)(F)F)ccn2-c2ccc(Cl)cc2)c1C [Compound 15]
Key: 1100 nM

Exercise: Item CCc1ccc(-n2ccc(C(F)(F)F)c2COc2c(F)cc(CCC(=O)O)cc2F)cc1 [Compound 32] has what recorded EC50?
Key: 357 nM

The values you see were collected from patent US8912227B1.
